Ref: PubChem BioAssay (NCATS)

- Tested on: PC15
- assay text: qHTS profiling for inhibitors of Plasmodium falciparum proliferation (AID 504749); also: nearly all actives have a fitted effect of over 60% in size
- stated conditions: P. falciparum in erythrocytes, SYBR Green DNA, 72 h; series mostly up to 28.7 µM
Records with an inconclusive call do not appear. Calls of active or inactive are those of the source. Calls follow the shape of the dose curve; as a rule, active = well fitted inhibition curve with a large enough effect; inconclusive = small, poorly fitted or top-dose-only effect; inactive = flat fitted curve, though single readings scatter.
Classes used: t (active), f (inactive)

[[record]]
compound = "CCOC(=O)c1c[nH]c2cc(OCC(C)C)c(OCC(C)C)cc2c1=O"
group = "t"

[[record]]
compound = "NCCO/C=C/[C@H](N)C(=O)O"
group = "f"

[[record]]
compound = "N=C(N)n1cccn1"
group = "f"

[[record]]
compound = "CN(C)C=Nc1c(I)cc(I)c(CCC(=O)O)c1I"
group = "f"

[[record]]
compound = "O=C(OCc1ccccc1)c1cccnc1"
group = "f"

[[record]]
compound = "C[C@H](CCC(=O)O)[C@H]1CC[C@H]2[C@@H]3CC[C@@H]4C[C@H](O)CC[C@]4(C)[C@H]3C[C@H](O)[C@]12C"
group = "f"

[[record]]
compound = "O=C(O)CCC/C=C\\C[C@@H]1[C@@H](/C=C/[C@@H](O)COc2cccc(C(F)(F)F)c2)[C@H](O)C[C@@H]1O"
group = "f"

[[record]]
compound = "CC(C)O"
group = "f"

[[record]]
compound = "CC1CC(OC(=O)C(O)c2ccccc2)CC(C)(C)C1 (stereo not given)"
group = "f"

[[record]]
compound = "S=C=Nc1ccc(N=C=S)cc1"
group = "f"


* * *

- Test system: W2
- assay text: qHTS profiling for inhibitors of Plasmodium falciparum proliferation (AID 504749); also: nearly all actives have a fitted effect of over 60% in size; also: potency is read from the fitted curve at half-maximal effect
- stated conditions: P. falciparum in erythrocytes, SYBR Green DNA, 72 h; series mostly up to 28.7 µM
Results filed as inconclusive are left out. The source made the active and inactive calls. Calls come from the whole dose curve; as a rule, active = well fitted inhibition curve with a large enough effect; inconclusive = small, poorly fitted or top-dose-only effect; inactive = flat fitted curve, though single readings scatter.
measure: Potency

[[record]]
compound = "O=C1c2ccccc2C(=O)C1c1ccc(Cl)cc1"
target = "W2"
measure = "Potency"
value_reported = "inactive"

[[record]]
compound = "COC(=O)CC[C@H](N)C(=O)O"
target = "W2"
measure = "Potency"
value_reported = "inactive"

[[record]]
compound = "C[C@]12CC[C@@H]3c4ccc(OC(=O)c5ccccc5)cc4CC[C@H]3[C@@H]1CC[C@@H]2O"
target = "W2"
measure = "Potency"
value_reported = "10.7 µM (active)"

[[record]]
compound = "CC(CNC(=O)c1cccnc1)NC(=O)c1cccnc1 (stereo unspecified)"
target = "W2"
measure = "Potency"
value_reported = "inactive"

[[record]]
compound = "CCOC(=O)Cc1ccc(-c2ccccc2)cc1"
target = "W2"
measure = "Potency"
value_reported = "inactive"

[[record]]
compound = "Nc1ncnc2c1ncn2CCOCP(=O)(O)O"
target = "W2"
measure = "Potency"
value_reported = "inactive"

[[record]]
compound = "Cc1cc(=O)c(C(=O)N[C@@H](C(=O)N[C@@H]2C(=O)N3C(C(=O)O)=C(CSc4nnnn4C)CS[C@H]23)c2ccc(O)cc2)c[nH]1"
target = "W2"
measure = "Potency"
value_reported = "inactive"

[[record]]
compound = "CCc1ccc(S(=O)(=O)O)cc1"
target = "W2"
measure = "Potency"
value_reported = "inactive"

[[record]]
compound = "C/C=C/C=C/C(=O)O"
target = "W2"
measure = "Potency"
value_reported = "inactive"

[[record]]
compound = "CN1c2c(nc(N)[nH]c2=O)NCC1CNc1ccc(C(=O)NC(CCC(=O)O)C(=O)O)cc1 (stereo unspecified)"
target = "W2"
measure = "Potency"
value_reported = "inactive"

[[record]]
compound = "c1ccc2c(c1)Sc1ccccc1N2CCN1CCCC1"
target = "W2"
measure = "Potency"
value_reported = "1.69 µM (active)"

